Please go through the items and note down their IC50.
Test system: tau stress granules
method: SY5Y-tT1 tau arsenite assay (tau stress granules per cell)
Assay type: cell-based
test-parameters: SY5Y-tT1 cells, 2 hours compound, 90 minutes arsenite, 50% reduction of granules per cell, read-out: IC50, Inhibitor Activity of Tau Stress Granules

Example entries and their recorded answers appear below.
compound: COCCCN1CCC(c2ccc(-c3cc(C)c(C(=O)N4CC[C@H](N)C4)s3)cc2)CC1
system: tau stress granules
result: 0.5 to 1 µM

compound: Cc1cc(-c2ccc(N3CCNCC3)cc2)sc1C(=O)N1CC[C@H](N)C1
system: tau stress granules
result: 1 to 2 µM

compound: Cc1cc(C2CCN(C)CC2)ccc1-c1cc(C)c(C(=O)N2CC[C@H](N)C2)s1
system: tau stress granules
result: 2 to 6 µM

Now for another entry.
What measured IC50 is associated with Cc1cc(-c2ccc(N3CCN(C4CCOC4)CC3)cc2)sc1C(=O)N1CC[C@H](N)C1 (stereo partly shown) on tau stress granules?
1 to 2 µM

---

Please go through the items and note down their pIC50.
System: TDP-43 aggregation
method: TDP-43 aggregation assay in SY5Y TDP-43WT cells (high content imaging)
Assay type: cell-based
test-parameters: Homo sapiens, tetracycline induction 24 hrs, 1 hour compound pre-treatment, sodium arsenite 23 hrs, 8-point dose curve, percentage of cells with TDP-43 aggregates, read-out: IC50, Inhibition of TDP-43 Aggregation
pIC50: −log10 of the molar value.

sample-smiles: Cc1cc(-c2ccc(COC3CCOCC3)cc2)sc1C(=O)N1CC[C@H](N)C1
pIC50: 5.70 to 6.00
//
sample-smiles: Cc1cc(-c2ccc(-c3cn[nH]c3)cc2)sc1C(=O)N1CC[C@H](N)C1
pIC50: > 6.30

Now for another entry.
Looking for the measured pIC50 of Cc1cc(-c2ccc(C3=CCOCC3)cc2)sc1C(=O)N1CC[C@H](N)C1 , can you help?
> 6.30

---

System: TDP-43 aggregation
method: TDP-43 aggregation assay in SY5Y TDP-43WT cells (high content imaging)
Type: cell-based
test-parameters: Homo sapiens, tetracycline induction 24 hrs, 1 hour compound pre-treatment, sodium arsenite 23 hrs, 8-point dose curve, percentage of cells with TDP-43 aggregates, read-out: IC50, Inhibition of TDP-43 Aggregation
pIC50: −log10 of the molar value.
readout: pIC50

sample-smiles: Cc1cc(-c2ccc(C3CCN(C4CCS(=O)(=O)CC4)CC3)cc2)sc1C(=O)N1CC[C@H](N)C1
pIC50: > 6.30

I'm hoping you can list pIC50 for every molecule here, please.
1. Cc1cc(-c2ccc(C3CCN(CC(C)(C)O)CC3)c(F)c2)sc1C(=O)N1CC[C@H](N)C1
2. COCCCN1CCC(c2ccc(-c3cc(C)c(C(=O)N4CC[C@H](N)C4)s3)cc2)CC1
3. Cc1cc(-c2ccc(C3CCN(C4CCOCC4)CC3)c(OC(F)(F)F)c2)sc1C(=O)N1CC[C@H](N)C1

1: > 6.30; 2: > 6.30; 3: 5.70 to 6.00

I'm hoping you can list pIC50 for every molecule here, please.
1. Cc1cc(-c2ccc(C3CCN(C(C)C)CC3)c(F)c2)sc1C(=O)N1CC[C@H](N)C1
2. CCN1CCC(c2ccc(-c3cc(Cl)c(C(=O)N4CC[C@H](N)C4)s3)cc2F)CC1
3. Cc1cc(-c2ccc3ccccc3c2)sc1C(=O)N1CC[C@H](N)C1

1. > 6.30
2. > 6.30
3. 5.00 to 5.22

Looking for the measured pIC50 of Cc1cc(-c2ccc(C3CCN(C4CCCCC4)CC3)c(F)c2)sc1C(=O)N1CC[C@H](N)C1 , can you help?
> 6.30

Data provenance is patent US20260258025A1.
